subject.of.test: Somatostatin receptor 5 (SSTR5) (human), P35346
Sequence (P35346 whole entry): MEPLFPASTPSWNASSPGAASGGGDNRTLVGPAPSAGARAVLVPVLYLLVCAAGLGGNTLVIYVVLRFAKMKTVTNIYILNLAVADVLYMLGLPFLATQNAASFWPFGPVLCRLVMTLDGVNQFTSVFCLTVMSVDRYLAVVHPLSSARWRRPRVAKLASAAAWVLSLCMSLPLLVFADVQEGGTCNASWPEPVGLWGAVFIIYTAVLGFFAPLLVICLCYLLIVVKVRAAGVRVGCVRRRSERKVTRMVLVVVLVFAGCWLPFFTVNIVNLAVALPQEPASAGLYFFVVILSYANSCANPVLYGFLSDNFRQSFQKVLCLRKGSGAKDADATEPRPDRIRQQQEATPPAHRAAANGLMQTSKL
test.protocol: competition with 125I-Tyr11 SST14
condition: N-octanoyl amide on the N-terminal residue; L-mesityl alanine (Msa) at position 6; D-Trp at position 7; disulfide bridge between the two cysteines
pIC50: −log10 of the molar value.
metric.name: pIC50

> print(dat)
                                    binder  metric.name  test.value
1  PCKNFFWKTFTSCK [Cortistatin analogue 3]        pIC50      < 6.52
